Tested on: HCT-116 colon
Assay: NCI tumour cell line growth inhibition, 48 h
Let's look at some compounds and their measured TGI.

Nc1ccccc1C#C/C=C\C#Cc1ccccc1N ... 19.1 µM
CC1=C(/C=C/Cl)CC(Cl)C(C)(Cl)C1 (stereo unspecified) ... > 100 µM
O=Cc1ccccc1COC(=O)c1cc(C(=O)OCc2ccccc2C=O)c(C(=O)OCc2ccccc2C=O)cc1C(=O)OCc1ccccc1C=O ... > 100 µM

Reported TGI for COCCCNc1nc(N)c(C#N)c(C#N)c1C#N was > 10 µM

Reported TGI for COC(=O)C12CC3CC(CC(C(=O)O)(C3)C1)C2 was > 100 µM

Reported TGI for c1ccc(CNc2nncc3[nH]cnc23)cc1 was > 100 µM

Reported TGI for N#Cc1c(-c2ccccc2)[nH]c2ccc(Cl)cc2c1=O was > 100 µM

Reported TGI for CC(=O)O[C@H]1C(=O)[C@@]2(C)C(C(OC(=O)c3ccccc3)[C@]3(O)CC(OC(=O)C(O)C(NC(=O)c4ccc(C(F)(F)F)cc4)c4ccccc4)C(C)=C1C3(C)C)[C@]1(OC(C)=O)CO[C@@H]1C[C@@H]2O (stereo partly specified) was 0.196 µM

Reported TGI for CC1=CC(C)(C)N=C2SC(c3ccc(N)cc3)=NN12 was > 100 µM

Reported TGI for CC/C=C\C[C@H](O)C/C=C1/C(=O)C=C[C@@H]1C/C=C\CCCC(=O)OC was 2.92 µM

Reference for the values: PubChem BioAssay (NCI)
